- tested-system: T1, human Jagged1 (human, UniProt P78504 34-1218)
- T1 construct: whole, on cells
- T1 sequence (P78504 34-1218): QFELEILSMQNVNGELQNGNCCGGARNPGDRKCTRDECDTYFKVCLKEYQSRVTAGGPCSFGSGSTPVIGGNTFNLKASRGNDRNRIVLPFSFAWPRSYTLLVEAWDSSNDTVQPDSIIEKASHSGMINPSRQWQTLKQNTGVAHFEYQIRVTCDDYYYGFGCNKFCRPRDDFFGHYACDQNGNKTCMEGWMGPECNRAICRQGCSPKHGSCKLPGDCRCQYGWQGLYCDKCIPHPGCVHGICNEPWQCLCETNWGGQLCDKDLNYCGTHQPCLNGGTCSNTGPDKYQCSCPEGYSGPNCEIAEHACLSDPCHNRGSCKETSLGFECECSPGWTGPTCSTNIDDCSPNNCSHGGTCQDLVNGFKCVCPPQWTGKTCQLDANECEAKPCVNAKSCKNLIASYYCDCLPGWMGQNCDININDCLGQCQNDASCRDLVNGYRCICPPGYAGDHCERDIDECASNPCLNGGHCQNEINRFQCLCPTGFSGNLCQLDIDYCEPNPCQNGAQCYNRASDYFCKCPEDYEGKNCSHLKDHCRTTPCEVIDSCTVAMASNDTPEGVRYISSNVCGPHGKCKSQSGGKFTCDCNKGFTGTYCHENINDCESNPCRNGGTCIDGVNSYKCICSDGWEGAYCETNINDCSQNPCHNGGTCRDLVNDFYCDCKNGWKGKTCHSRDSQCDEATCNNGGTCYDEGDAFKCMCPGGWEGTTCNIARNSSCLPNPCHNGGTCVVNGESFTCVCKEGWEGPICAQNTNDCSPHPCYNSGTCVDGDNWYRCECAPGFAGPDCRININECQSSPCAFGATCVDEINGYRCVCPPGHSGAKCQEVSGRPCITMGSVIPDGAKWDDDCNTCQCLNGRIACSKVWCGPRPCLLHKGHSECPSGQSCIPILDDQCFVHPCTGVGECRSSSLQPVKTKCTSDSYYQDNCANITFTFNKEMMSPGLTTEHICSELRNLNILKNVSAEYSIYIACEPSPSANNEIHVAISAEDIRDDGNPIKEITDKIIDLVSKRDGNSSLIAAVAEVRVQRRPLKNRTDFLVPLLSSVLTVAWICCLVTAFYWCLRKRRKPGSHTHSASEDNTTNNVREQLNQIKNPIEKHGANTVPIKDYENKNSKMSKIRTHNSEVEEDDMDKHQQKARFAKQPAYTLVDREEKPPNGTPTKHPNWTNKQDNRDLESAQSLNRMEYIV
- test-description: FMAT, hybridoma supernatant, 293T cells with human Jagged1
Okay, here is how we bin by FL1 x count: label 0: < 4000; label 1: ≥ 4000 and < 20000; label 2: ≥ 20000

[
  {
    "binder": "17F3 (antibody, IgG2, V domains shown, Fully human; also used where no isotype is printed) VH: QVQLVQSGAEVKKPGASVKVSCKASGYTFTNYGISWVRQAPGQGLEWMGWINAYNGNTNYAQNLQGRVTMTTDTSTNTAYMELRSLRSDDTAVYYCARVAPAAFFDYWDQGTLVTVSS VL: SYELTQPPSVSVSPGQTASITCSGDKLGDKYVCWYQQKPGQSPVLVIYQDNKRPSGIPERFSGSNSGNTATLIISGTQAMDEADYYCQAWDSSTVFGGGTKLTVL",
    "class": "label 2"
  },
  {
    "binder": "1E4 (antibody, IgG2, V domains shown, Fully human; also used where no isotype is printed) VH: QVQLVESGGGVVQPGRSLRLSCAASGFTFSSYGMHWVRQAPGKGLEWVAVTWYDGSNKYYADSVKGRFTISRDNSKNTLYLQMNSLRAEDTAVYYCARENCSSTSCYYTVTTDYYGMDVWGQGTTVTVSS VL: EIVLTQSPGTLSLSPGERATLSCRASQRVSSSYLTWYQQKPGQAPRLLIYGASIRATGIPDRFSGSGSGTDFTLTITRLEPEDFAVYFCQQCYTSPITFGQGTRLDIK",
    "class": "label 1"
  },
  {
    "binder": "12A1 (antibody, IgG4, V domains shown, Fully human; also used where no isotype is printed) VH: QVQLVQSGAEVKRPGASVKVSCKASGYTFTSYGITWVRQAPGQGLEYMGWISTYNGNTDYAQKFQGRVTMTADISTSTAYMELRSLRSDDTAVYYCARERGSYFDYWGQGTLVTVSS VL: SYELTQPPSVSVSPGQTARITCSGDTLPKKYAYWYQQKSGQAPVLVIYEDIKRPSGIPERFSGSSSGTMATLTISGAQVEDEADYYCFSTDSGGNHKFGGGTKLTVL",
    "class": "label 2"
  }
]

Which of the defined bands does the recorded FL1 x count of 2H10 (antibody, IgG4, V domains shown, Fully human; used for IgG4 rows and where no isotype is printed; also called 2H10 IgG4) VH: QVQLVESGGGVVQPGRSLRLSCAASGFTFSRHGMHWVRQAPGKGLEWVAVVWFDGSNIYYADSVKGRFTISRDNSKNTLYLQMNSLRAEDTAMYYCARDSRIAAADYWGQGTLVTVSS VL: SYELTQPPSVSVSPGQTVSITCSGDKLGDKYVCWYQQKPGQSPVLVIYQESKRPSGIPERFSGSSSGNTATLTISGTQAMDEADYYCQTWDSSLVVFGGGTKLTVL sit within?
label 2

Another binder to check: 4B3 (antibody, IgG4, V domains shown, Fully human; also used where no isotype is printed) VH: QVQLVQSGAEVRKSGASVKVSCKASGYSFTTYDINWVRQATGQGLEWMGWMNPNSGYTDYAQKFQGRVTLTRNMSIDTAYMELSSLRSEDTAVYYCARAYYYDSSAYYLFDYWGQGTLVTVSS VL: DIQMTQSPSSLSASVGDRVTITCRASQGISNYLAWFQQKPGKAPKSLIYAASSLQSGVPSKFSGSGSGTDFTLTISSLQPEDFATYFCQQYISYPLTFGGGTKVEI
label 1

Another binder to check: 1D4 (antibody, IgG4, V domains shown, Fully human XenoMouse antibody; also used where no isotype is printed) VH: QLQLQESGPGLVKPSETLSLTCTVSGGSISSSSYYWGWIRQPPGKGLEWIGSFYYSRSTYYNPSLKSRVTISVDTSKNQFSLKLSSVTAADTAVHYCARGSIAVPDAFDIWGQGTMVTVSS VL: SYELTQPPSVSVSPGQTASITCSGDKLGDKFACWYQQKPGHSPVLVVYQDNKRPSGIPERFSGSNSGNSATLTISGTQAMDEADYYCQAWDSNTAVFGGGTKLTVL
label 2

Another binder to check: 20G8 (antibody, IgG4, V domains shown, Fully human; also used where no isotype is printed) VH: QVQLVQSGAEVKKPGASVKVSCKASGYTFTSYGISWVRQAPGQGLEWMGWISVYNGNTNYAQKLQGRVTMTTDTSTSTAYMEVRSLRSDDTAVYYCARDRVPRIPRTTEAFDIWGRGTMVTVCS VL: QSVLTQPPSASGTPGQRVTISCSGSSSNIGSYYVYWYQQLPGTAPKLLIYRDNQRPSGVPDRFSGSKSGTSASLAIRGLRSDDEADYYCAAWDDSLSGHWVFGGGTKLTVL
label 1

Another binder to check: 9G8 (antibody, IgG4, V domains shown, Fully human; used for IgG4 rows and where no isotype is printed; also called 9G8 IgG4) VH: QLQLQESGPGLVKPSETLSLSCTVSGGSISSSSSYWGLIRQPPGKGLEWIGSIYYSGSTYYSPSLKSRVSISVDTSKNQFSLKLSSVTAADTAVYFCARQGYGGHPDVFDIWGQGTMVTVSS VL: SSELTQSPSVSVSPGQTARITCSGDKLGDVYVCWYQQKTGQSPVLVIYEDTKRPSGIPERFSGSNSGNTATLTISGTQVMDEADYYCQAWDSTTAVIFGGGTKLTVL
label 0

Another binder to check: 3A7 (antibody, IgG4, V domains shown, Fully human; also used where no isotype is printed) VH: EVQVVESGGGLVQPGGSLRLSCEASGFTFSNYWMIWVRQAPGKGLEWVASIKEDGSEKYYVDSVKGRFTISRDNAKSSLYLQMNSLRAEDTAVYYCVRDWELRGHYYYHGMDVWGQGTTVTVSS VL: DIQMTQSPSSLSASVGDRVTITCRASLDIRNDLGWFLQKPGKAPKRLIYAASSLQSGVPSRFSGSGSGTEFTLTINSLQPEDFATYYCLQHRNYPFTFGPGTKVDFK
label 0

Another binder to check: 4B4 (antibody, IgG4, V domains shown, Fully human; used for IgG4 rows and where no isotype is printed; also called 4B4 IgG4; 4B4.1) VH: QVLLIQSGAEVKKPGASVQVSCKASGYTFTNYGVIWVRQAPGQGLEYMGWISAYNGNTNYAQKLQDRVTMTSDTSTTTAYMELRSLRSDDTAVYYCARELGSSFDYWGQGTLVTVSS VL: SYELTQPPSVSVSPGQTARITCSGDALPKKYAYWYQQKSGQAPVLVIYEDIKRPSGIPERFSGSSSGTMATLTISGAQVEDEADYYCFSTDNSGDHSVFGGGTKLTVL
label 1

Another binder to check: 21H3 (antibody, IgG4, V domains shown, Fully human; used for IgG4 rows and where no isotype is printed; also called 21H3 IgG4) VH: QVQLVQSGAEVKKPGASVKVSCKASGYTFTNYGITWVRQAPGQGPEWMGWISAYNGNTNYAQKLQDRVTVTTDTSTSTAYMELRSLRSDDTAVYYCARDRVPRIPVTTEAFDIWGQGTMVTVSS VL: QSVLTQPPSASGTPGQRVTISCSGSSSNIGSYFVYWYQQLPGTAPKLLIYRNNQRPSGVPDRFSGSESGTSASLAISGLRSEDEADYYCAAWDDSLSGHWVFGGGTRLTVL
label 0

These measurements were taken from patent US20100196385A1.
